test protocol: in vitro
Type: in vitro ADME, human
measurement context: pH 7.4; human liver microsomes 1 mg/ml, 5 μM test compound, 15 min, 37° C.; read-out: % recovery HLM15
attribute measured: recovery at 15 min, 5 μM (%)
Express it in %; write the number only.

CC(C)CN(C[C@@H](O)[C@H](Cc1ccccc1)NC(=O)OCc1cncs1)C(=O)c1ccco1 [Compound C21]: 62
CC(C)CN(C[C@@H](O)[C@H](Cc1ccccc1)NC(=O)OCc1cncs1)C(=O)c1cccc(Br)c1 [Compound C17]: 68
CC(C)CN(C[C@@H](O)[C@H](Cc1ccccc1)NC(=O)OCc1cncs1)C(=O)c1ccc(Br)cc1 [Compound C18]: 57

// next item, recovery at 15 min, 5 μM requested
Ask: For the molecule CC(C)CN(C[C@@H](O)[C@H](Cc1ccccc1)NC(=O)OCc1cncs1)C(=O)c1ccc2c(c1)OCO2 [Compound C1] , give its measured recovery at 15 min, 5 μM value.
Reply: 56
